Data provenance is the supplement of paper PMC9262897.

system: E. coli TESEC Mtb Alr; assay: growth (OD600 after 10 h); higher = more growth (less inhibition); details: arabinose 1000000 nM; compound 0.1 mM; raw OD600 reference: median of DMSO wells 0.193, cell-free background 0.041
Counter-ions that a name gives are not always drawn.
MEASURE: growth
Number only, no unit.

For CC(=O)OC[C@H]1O[C@@H]([S-])[C@H](OC(C)=O)[C@@H](OC(C)=O)[C@@H]1OC(C)=O.CCP(CC)CC.[Au+] , what is its reported growth?
0.0436

Given CN(C)C(=O)C(CCN1CCC(O)(c2ccc(Cl)cc2)CC1)(c1ccccc1)c1ccccc1 [Loperamide hydrochloride] , state its recorded growth.
0.0404

Which growth value belongs to COc1ccc([C@@H]2CC(=O)c3c(O)cc(O[C@@H]4O[C@H](CO[C@@H]5O[C@@H](C)[C@H](O)[C@@H](O)[C@H]5O)[C@@H](O)[C@H](O)[C@H]4O)cc3O2)cc1O ?
0.177

For O=C1c2cccc(O)c2C(=O)c2c(O)cccc21 [1,8-Dihydroxyanthraquinone] , what is its reported growth?
0.0486

Need growth of O=c1[nH]cnc2c1ncn2[C@H]1CC[C@@H](CO)O1 , thanks.
0.149

// returns reported growth for input CN[C@H](CC(C)C)C(=O)N[C@H]1C(=O)N[C@@H](CC(N)=O)C(=O)N[C@H]2C(=O)N[C@H]3C(=O)N[C@H](C(=O)N[C@H](C(=O)O)c4cc(O)cc(O)c4-c4cc3ccc4O)[C@H](O)c3ccc(c(Cl)c3)Oc3cc2cc(c3O[C@@H]2O[C@H](CO)[C@@H](O)[C@H](O)[C@H]2O[C@H]2C[C@](C)(N)[C@H](O)[C@H](C)O2)Oc2ccc(cc2Cl)[C@H]1O [Vancomycin hydrochloride]
0.0388

Give the measured growth of CN1CCN(C(c2ccccc2)c2ccc(Cl)cc2)CC1 (centres undefined) [Chlorcyclizine hydrochloride] .
0.0714

Consider the compound shown here: C=CCOc1ccccc1OCC(O)CNC(C)C (centres undefined) [Oxprenolol hydrochloride] What is its recorded growth?
0.208

Reported growth for Cc1onc(-c2ccccc2)c1C(=O)N[C@@H]1C(=O)N2[C@@H]1SC(C)(C)[C@@H]2C(=O)O [Oxacillin sodium] : what is it?
0.187

Endpoint output: growth of COC(=O)C1=C(C)NC(C)=C(C(=O)OC2CCCN(Cc3ccccc3)C2)C1c1cccc([N+](=O)[O-])c1 (centres undefined) [Benidipine hydrochloride] . Value?
0.107

What measured growth goes with Cc1c(NC(C)C)c(=O)n(-c2ccccc2)n1C [Isopyrin hydrochloride] ?
0.211

growth lookup needed for Cc1cc(-c2ccccc2)nnc1NCCN1CCOCC1 [Minaprine dihydrochloride] , thanks.
0.155

Entry under review: C[N+](C)(C)CCCCCC[N+](C)(C)C [Hexamethonium dibromide dihydrate] . Reported growth?
0.175

What value of growth has been recorded for this entry: CN(C)CCCO[C@@H]1[C@H]2OC(C)(C)O[C@H]2O[C@@H]1[C@H](O)CO [Amiprilose hydrochloride]
0.185
